Items are presented alongside their recorded OD450 at 100 nM.
- STUDY SYSTEM: T1, human MSLN-R2-his protein (human, UniProt Q13421 391-486)
- T1 construct: Region 2 of human MSLN, His-tagged; also called human MSLN-R2 protein; hMSLN-R2-his; not shown: His tag
- T1 sequence (Q13421 other isoform, or with tags, fused parts or gaps): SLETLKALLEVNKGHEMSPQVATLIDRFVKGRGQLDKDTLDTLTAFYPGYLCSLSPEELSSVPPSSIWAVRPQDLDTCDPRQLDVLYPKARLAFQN
- EXPERIMENTAL PROTOCOL: ELISA, coated MSLN-R2;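 also: chimeric antibodies bound to blocked coated plates for 2 h at 37 °C, TMB colour development stopped with HCl, with a negative control antibody for comparison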
Field: numeric (OD450). Do not append units.

• S009-F1.35.24 (antibody, human IgG1, kappa, V domains shown, Human-murine chimeric antibody, human IgG1/kappa constant regions) VH: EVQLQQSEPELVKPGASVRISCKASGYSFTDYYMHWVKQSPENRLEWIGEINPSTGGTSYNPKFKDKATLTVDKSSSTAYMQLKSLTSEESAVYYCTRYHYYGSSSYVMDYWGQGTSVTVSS VL: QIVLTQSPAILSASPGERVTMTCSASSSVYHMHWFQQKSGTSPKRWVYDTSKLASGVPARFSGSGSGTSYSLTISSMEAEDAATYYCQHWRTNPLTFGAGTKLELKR = 0.06

For the next question, use this binder.
May I ask what OD450 at 100 nM has been recorded for S009-F1.59.1 (antibody, human IgG1, kappa, V domains shown, Human-murine chimeric antibody, human IgG1/kappa constant regions) VH: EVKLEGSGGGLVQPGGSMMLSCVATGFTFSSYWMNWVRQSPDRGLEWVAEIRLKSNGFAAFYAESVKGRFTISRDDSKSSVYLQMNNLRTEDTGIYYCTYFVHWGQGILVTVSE VL: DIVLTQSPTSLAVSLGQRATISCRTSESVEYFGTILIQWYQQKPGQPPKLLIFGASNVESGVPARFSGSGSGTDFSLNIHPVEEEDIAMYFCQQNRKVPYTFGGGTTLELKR ? 0.06
